# target-system: Kinesin-like protein KIF11 (Homo sapiens, UniProt P52732)
# Sequence (P52732 whole entry): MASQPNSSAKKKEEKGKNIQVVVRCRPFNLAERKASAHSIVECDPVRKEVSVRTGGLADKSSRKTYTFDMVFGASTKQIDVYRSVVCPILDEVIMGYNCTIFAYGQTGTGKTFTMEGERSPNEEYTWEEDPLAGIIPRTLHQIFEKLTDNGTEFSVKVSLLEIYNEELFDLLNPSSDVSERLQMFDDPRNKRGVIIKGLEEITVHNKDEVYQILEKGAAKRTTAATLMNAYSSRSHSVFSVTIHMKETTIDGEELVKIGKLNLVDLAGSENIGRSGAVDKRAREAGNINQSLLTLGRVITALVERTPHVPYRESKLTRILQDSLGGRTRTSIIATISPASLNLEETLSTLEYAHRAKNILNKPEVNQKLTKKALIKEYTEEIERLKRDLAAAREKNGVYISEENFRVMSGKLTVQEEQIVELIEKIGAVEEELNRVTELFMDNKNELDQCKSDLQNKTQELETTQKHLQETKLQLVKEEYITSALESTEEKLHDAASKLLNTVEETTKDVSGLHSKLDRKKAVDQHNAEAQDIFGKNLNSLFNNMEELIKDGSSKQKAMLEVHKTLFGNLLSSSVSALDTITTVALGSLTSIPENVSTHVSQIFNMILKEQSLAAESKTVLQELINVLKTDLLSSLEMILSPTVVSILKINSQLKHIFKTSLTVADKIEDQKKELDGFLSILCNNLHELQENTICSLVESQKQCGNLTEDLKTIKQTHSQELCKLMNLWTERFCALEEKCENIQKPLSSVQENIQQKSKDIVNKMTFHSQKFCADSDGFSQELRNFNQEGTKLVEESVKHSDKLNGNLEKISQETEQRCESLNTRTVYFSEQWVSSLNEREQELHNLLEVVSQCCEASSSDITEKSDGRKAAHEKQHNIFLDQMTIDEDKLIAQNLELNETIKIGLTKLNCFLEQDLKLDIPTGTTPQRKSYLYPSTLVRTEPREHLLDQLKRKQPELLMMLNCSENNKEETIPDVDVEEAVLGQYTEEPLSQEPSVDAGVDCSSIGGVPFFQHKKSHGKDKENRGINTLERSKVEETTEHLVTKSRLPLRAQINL
# test-details: In vitro inhibitory concentration towards kinesin spindle protein activity of ATP hydrolysis in the presence of microtubules measured by ATPase assay (n=3)
endpoint: IC50 (µM)

A selection of reference data follows.
compound="CS(=O)(=O)N1N=C(c2cc(F)ccc2F)CC1c1ccccc1 (centres undefined)" endpoint=IC50 measured_result=1.8
compound="CC(C)C(=O)N1N=C(c2ccccc2Cl)CC1c1cccc(O)c1 (centres undefined)" endpoint=IC50 measured_result=1.1
compound="CN(C)C(=O)N1N=C(c2cc(F)ccc2F)CC1c1ccccc1 (centres undefined)" endpoint=IC50 measured_result=0.084

1. CCOC(=O)C1=C(C)NC(=S)N[C@H]1c1cccc(O)c1 [S-MENASTROL]
2. NCCCC(=O)N1N=C(c2ccccc2Cl)CC1c1cccc(O)c1 (centres undefined)
3. CC(=O)N1N=C(c2ccccc2C)CC1c1ccccc1 (centres undefined)
4. CCC(=O)N1N=C(c2ccccc2Cl)CC1c1cccc(O)c1 (centres undefined)
5. CC(=O)N1N=C(c2cc(F)ccc2F)CC1c1ccccc1 (centres undefined)
Order field: IC50 | Direction: descending (largest first) Returns: the labels listed in the requested order.
3, 1, 2, 4, 5

1. O=C(c1ccccc1)N1N=C(c2ccccc2Cl)CC1c1cccc(O)c1 (centres undefined)
2. CC(=O)N1N=C(c2cc(F)ccc2F)C[C@H]1c1cccc(O)c1
Which one would you say has the larger IC50 value: 1 , or 2 ? In your reply, give the label of the chosen option.
1
(1: 13.5 µM, 2: 0.026 µM)

P. CC(=O)N1N=C(c2c(F)cccc2F)CC1c1ccccc1 (centres undefined)
Q. CC(=O)N1N=C(c2ccccc2)CC1c1cccc(O)c1 (centres undefined)
Which one would you say has the larger IC50 value: P , or Q ? In your reply, give the label of the chosen option.
P
(P: 10.9 µM, Q: 6.9 µM)
